Measured values drawn from paper PMC8809517 for this set.

Target: T1, 9S-E2 (synthetic construct)
T1 chain: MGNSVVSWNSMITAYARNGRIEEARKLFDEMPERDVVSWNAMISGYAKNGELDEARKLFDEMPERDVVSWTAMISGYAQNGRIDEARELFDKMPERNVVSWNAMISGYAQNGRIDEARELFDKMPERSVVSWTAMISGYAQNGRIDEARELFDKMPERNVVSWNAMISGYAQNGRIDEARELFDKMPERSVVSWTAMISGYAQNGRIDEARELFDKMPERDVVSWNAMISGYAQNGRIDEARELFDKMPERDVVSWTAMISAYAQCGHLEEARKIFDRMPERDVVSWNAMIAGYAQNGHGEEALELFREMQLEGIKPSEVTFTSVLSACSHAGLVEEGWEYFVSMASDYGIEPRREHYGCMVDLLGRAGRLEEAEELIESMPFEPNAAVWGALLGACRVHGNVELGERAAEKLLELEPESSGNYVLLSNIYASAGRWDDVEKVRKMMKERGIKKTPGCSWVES
Assay: microscale thermophoresis; HRP: 50 mM Tris pH 8, 150 mM NaCl, 1 mM beta-mercaptoethanol, 50 ug/ml BSA, 3 ug/ml yeast RNA, 0.5% heparin; ITC and FP: Tris pH 8, 200 mM KCl, 5% glycerol; MST: 50 mM Tris pH 8, 200 mM NaCl, 1 mM DTT, BSA, heparin, 0.05% Tween 20
Settings: protein: recombinant; tags: N-terminal TRX-His; label: 5' Cy5
measured_parameter: Kd (nM)
Give bare numbers, in nM.

Prompt: Give reported Kd value for AUUACACGUGA (ssRNA) [Cy5-rpoA]
Response: 6.8
